- assayed_system: Ectonucleotide pyrophosphatase/phosphodiesterase family member 1 (Homo sapiens, UniProt P22413)
- Sequence (P22413 whole entry): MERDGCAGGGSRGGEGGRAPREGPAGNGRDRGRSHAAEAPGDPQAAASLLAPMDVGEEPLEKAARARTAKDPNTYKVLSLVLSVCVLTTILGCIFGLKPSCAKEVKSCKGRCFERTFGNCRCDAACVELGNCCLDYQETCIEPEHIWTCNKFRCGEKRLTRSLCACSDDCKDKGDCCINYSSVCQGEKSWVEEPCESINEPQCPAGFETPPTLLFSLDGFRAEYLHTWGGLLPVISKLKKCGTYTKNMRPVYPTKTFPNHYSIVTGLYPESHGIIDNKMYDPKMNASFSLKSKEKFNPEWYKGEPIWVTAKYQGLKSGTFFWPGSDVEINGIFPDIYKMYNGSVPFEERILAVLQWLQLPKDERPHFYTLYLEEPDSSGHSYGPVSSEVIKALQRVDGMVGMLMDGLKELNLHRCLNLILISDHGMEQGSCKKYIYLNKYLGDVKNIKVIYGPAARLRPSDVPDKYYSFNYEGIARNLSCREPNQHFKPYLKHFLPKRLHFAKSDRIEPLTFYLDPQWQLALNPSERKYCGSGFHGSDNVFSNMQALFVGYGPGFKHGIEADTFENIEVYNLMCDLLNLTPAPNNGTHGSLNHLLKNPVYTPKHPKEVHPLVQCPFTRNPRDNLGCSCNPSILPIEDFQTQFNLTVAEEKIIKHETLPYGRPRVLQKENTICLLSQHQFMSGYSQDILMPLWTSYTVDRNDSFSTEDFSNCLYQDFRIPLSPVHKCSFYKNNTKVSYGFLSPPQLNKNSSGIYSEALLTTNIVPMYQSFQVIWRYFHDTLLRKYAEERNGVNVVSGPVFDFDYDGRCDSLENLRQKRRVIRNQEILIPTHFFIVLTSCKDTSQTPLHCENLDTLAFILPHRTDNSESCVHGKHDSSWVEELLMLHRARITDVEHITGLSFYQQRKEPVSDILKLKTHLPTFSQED
- assay_comment: Inhibition of recombinant human NPP1 expressed in COS7 cell membranes using p-Nph-5'-TMP as substrate pretreated for 10 mins followed by substrate addition and measured after 30 mins by spectrophotometric method
readout_type: IC50

INPUT: Return the recorded IC50 value; entry: COc1cc2cc(-n3cc(C)c4ccccc43)n3c4ccccc4c(C)c3c2cc1OC
OUTPUT: 360 to 2810 nM

----------
- assayed_system: Ectonucleotide pyrophosphatase/phosphodiesterase family member 1 (Homo sapiens, UniProt P22413)
- assay_comment: Uncompetitive-inhibition of recombinant human N-terminal His-tagged soluble NPP1 (Val191 to Leu591 residues) expressed in mouse NSO cells using p-Nph-5'-TMP as substrate after 15 mins by capillary electrophoresis method
readout_type: Ki (µM)
Kindly answer with a numeric value in µM, unit omitted.

INPUT: Return the recorded Ki value; entry: Nc1ncnc2c1ncn2[C@@H](C=O)O[C@@H](C=O)COP(=O)(O)OP(=O)(O)OP(=O)(O)O
OUTPUT: 4.09
